system: SF-268; assay: NCI tumour cell line growth inhibition, 48 h
Active and inactive are the calls of the source. Rule as the data show it: active = GI50 up to about 1.1 µM and inactive = higher.
Tick one outcome: active, inactive

Task: What did this assay record as the result for CC1(C)CC2(C)CC1CC2O (stereo not drawn) ?
Output: inactive

Task: What did this assay record as the result for "COc1ccc2c(NCCCCCCNc3c4ccccc4nc4cc(OC)ccc34)c3ccccc3nc2c1" ?
Output: active

Task: What did this assay record as the result for "COc1ccc2[nH]cc(/C=C(/C)c3ccncc3)c2c1" ?
Output: inactive

Task: What did this assay record as the result for N#CN1CCC2CC(=O)CCC2C1 (stereo not drawn) ?
Output: inactive

Task: What did this assay record as the result for "C=O.NNCCc1n[nH]c(=O)n1N" ?
Output: inactive

Task: What did this assay record as the result for "COC(=O)CCc1ccc2c(c1)[C@H](C(=O)OC)[C@@H](c1ccc(O)cc1)O2" ?
Output: inactive

Task: What did this assay record as the result for CC(C)c1cccc2sc(NC(=O)C(=O)C(C#N)c3cccc4ccccc34)nc12 (stereo not drawn) ?
Output: inactive

Task: What did this assay record as the result for COC(=O)C1(Cc2ccccc2)Cc2ccc3c(c2C1=O)CCC3 (stereo not drawn) ?
Output: inactive

Task: What did this assay record as the result for "CCCCC#CS(=O)(=O)C(F)(F)F" ?
Output: inactive

Task: What did this assay record as the result for NC(=O)Cc1nc2c(N)ncnc2n1C1OC(CO)C(O)C1O (stereo not drawn) ?
Output: inactive

Task: What did this assay record as the result for "COC(=O)[C@@H](Nc1ccccc1)[C@@]1(C(=O)OC)SC12c1ccccc1-c1ccccc12" ?
Output: inactive

Task: What did this assay record as the result for "CSCC[C@@H]1C(=O)N(C)[C@H](C(C)(C)C)N1C(=O)c1ccccc1" ?
Output: inactive

Task: What did this assay record as the result for "CC1C2=CC=C(O2)C(C)(C)C2=CC=C(O2)C(C)(C)C2=CC=C(O2)C(C)(C)C2=CC=C1O2" ?
Output: inactive

Task: What did this assay record as the result for "COC(=O)c1cc(C#N)[nH]c1-c1cc(Br)cs1" ?
Output: inactive

Task: What did this assay record as the result for "S=C1Cc2cc3ccccc3nc2-c2ccccc2N1" ?
Output: inactive

Task: What did this assay record as the result for "CCOC(=O)c1cn(CC)c2cc3c(cc2c1=O)SCS3" ?
Output: inactive

Task: What did this assay record as the result for "O=C1Nc2ccccc2SC1=C(C(=O)c1ccccc1)C(=O)c1ccccc1" ?
Output: inactive

Task: What did this assay record as the result for "O=C1c2ccccc2C(=O)C1(O)c1c[nH]c2ccccc12" ?
Output: inactive

Task: What did this assay record as the result for "CC(=O)/C(=N\N=C(N)N)c1ccccc1" ?
Output: inactive

Task: What did this assay record as the result for "c1ccc([P+](c2ccccc2)(c2ccccc2)C2Sc3ccccc3S2)cc1" ?
Output: inactive

Task: What did this assay record as the result for COc1ccc(C(=O)OCC2OC(n3cnc4c(=S)nc[nH]c43)C(OC(=O)c3ccc(OC)cc3)C2OC(=O)c2ccc(OC)cc2)cc1 (stereo not drawn) ?
Output: inactive

Task: What did this assay record as the result for "CC(=O)OCCOCCN1CCN(C2=C(Cl)C(=O)c3c(O)ccc(O)c3C2=O)CC1" ?
Output: inactive

Task: What did this assay record as the result for "CO[C@@]12C[C@@H](C)C3=CCC(C)=C3CC1=C(C)C(=O)O2" ?
Output: inactive
